Data origin: PubChem BioAssay (NCI)

- test.details: NCI Yeast Anticancer Drug Screen. Data for the bub3 strain (AID 167)
- condition.label: S. cerevisiae bub3 mutant strain, at 50.0 µM (retest, dose inferred, filed as 5.0)
About 79,000 compounds went through this panel and 15% of them were active in at least one assay; those are over-represented in the sample as a whole. The source made the active and inactive calls. Cut-off read from the data, not from the text of the source: active = growth inhibition above about 70%; inactive = the rest.
Parameter call: string, one of active, inactive

O=C1C=CC(=O)c2c(O)c(N3CCC[C@H]3CO)c(Cl)c(O)c21    active

Record request — test call for COC(=O)c1cc(=O)n(-c2ccccc2OC)c(SC)n1
inactive

Record request — test call for O=c1[nH]c2ccccc2nc1CBr
active

Record request — test call for C/C=c1/[nH]c(=O)/c(=C\c2ccccc2)[nH]c1=O
inactive

Record request — test call for Oc1c(Cl)cc(Br)cc1Cl
active

Record request — test call for Cc1ccc(O)c2c(NCCCCCCNc3cc(C)[n+](C)c4c(C)ccc(O)c34)cc(C)[n+](C)c12
active

Record request — test call for O=C(/C=C\c1cc(Br)ccc1O)/C=C/c1cc(Br)ccc1O
active

Record request — test call for Cc1cc([N+](=O)[O-])cc(Cl)c1O
inactive

Record request — test call for CSC(=S)NNC(C)c1nccc2ccccc12 (stereo not given)
active

Record request — test call for COc1ccc(C(=O)Nc2ccc(O)c(=O)cc2)cc1
inactive

----------
- test.details: NCI Yeast Anticancer Drug Screen. Data for the sgs1 mgt1 strain (AID 161);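 note: 0% = growth of cultures given vehicle only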
- condition.label: S. cerevisiae sgs1 mgt1 strain, at 5.0 µM (retest, dose inferred, filed as 0.5), stronger effect = higher value
About 79,000 compounds went through this panel and 15% of them were active in at least one assay; those are over-represented in the sample as a whole.
Listing of entries alongside the reported growth inhibition.
Dear colleague, please return just the value in %, with no unit written.

C[C@]12CCC3[C@@H](CC[C@@H]4c5nonc5CC[C@]34C)C1CCC(=O)N2 (stereo partly specified)    11
CN(C)CC1CC/C(=C\c2ccc(O)cc2)C1=O (stereo unspecified)    -4
CN(C)CCC(=O)C(=Cc1cc(Cl)cc(Cl)c1)C(=O)CCN(C)C    12
CCOC(=O)/C(=C/c1ccc2ccccc2c1)P(=O)(OCC)OCC    -6
Nc1nc2nn(-c3ccc(C(=O)O)cc3)nc2c(=O)[nH]1    -4

Proceed to the following item.
What value of growth inhibition has been reported for the following molecule? CCCCCCCC1SCC(=O)N1c1nncs1 (stereo unspecified)
0

----------
Listing of entries alongside the reported growth inhibition.
- test.details: NCI Yeast Anticancer Drug Screen. Data for the sgs1 mgt1 strain (AID 161);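 note: 0% = growth of cultures given vehicle only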
- condition.label: S. cerevisiae sgs1 mgt1 strain, at 5.0 µM (retest, dose inferred, filed as 0.5), stronger effect = higher value
This is part of a sample that, as a whole, favours compounds with a hit. Of some 79,000 tested, about 15% had one in any assay.
Dear colleague, please return just the value in %, with no unit written.

What value of growth inhibition has been reported for the following compound? CCOC(=O)C(CCSC)C(=O)OCC
4

What value of growth inhibition has been reported for the following compound? CCOc1ncc(Cl)c(OCC)n1
-1

What value of growth inhibition has been reported for the following compound? COc1ccc(C(=O)CC2(O)C(=O)N(C)c3c(Cl)cc(Cl)cc32)cc1 (configuration not stated)
4

What value of growth inhibition has been reported for the following compound? O=[N+]([O-])c1ccc(NCc2ccccc2)c([N+](=O)[O-])c1
4

What value of growth inhibition has been reported for the following compound? Cc1ccc(S(=O)(=O)Oc2ccc3oc4c(CO)ccc(NCCN(C)C)c4c(=O)c3c2)cc1
2

What value of growth inhibition has been reported for the following compound? Cc1c(Cl)cccc1N=NC(=O)NNc1cccc(Cl)c1C
-1

What value of growth inhibition has been reported for the following compound? O=[N+]([O-])c1cccc(S(=O)(=O)N/N=C/c2cc(I)cc([N+](=O)[O-])c2O)c1
10

What value of growth inhibition has been reported for the following compound? CSC(SC)(C(=O)O)c1cc(-c2c(Cl)cccc2Cl)no1
7

What value of growth inhibition has been reported for the following compound? O=C1c2ccccc2C(=O)c2sccc21
-43

What value of growth inhibition has been reported for the following compound? C[C@]12CCC(=O)C=C1CC[C@@H]1[C@@H]2[C@@H](O)C[C@@]2(C)[C@H]1CC[C@]2(O)C(=O)COC(=O)C1CCCC1
-2

What value of growth inhibition has been reported for the following compound? CC(C)Cc1ncc(CC(C)C)n(O)c1=O
41

What value of growth inhibition has been reported for the following compound? COC(=O)c1ccc(/C=C/C2=CC(=O)C=CC2=O)cc1
27

What value of growth inhibition has been reported for the following compound? C=CC(=O)NC(=O)Nc1ccc(Cl)cc1
27

What value of growth inhibition has been reported for the following compound? Nc1ccc(Cc2ccc(N)cc2[N+](=O)[O-])c([N+](=O)[O-])c1
6

What value of growth inhibition has been reported for the following compound? Oc1ccc(-c2ccccc2)cc1Br
1

What value of growth inhibition has been reported for the following compound? CCCCCCCCCCCCCCCCCC(=O)OCC(COC(=O)CCCN)OC(=O)CCCN (configuration not stated)
3

What value of growth inhibition has been reported for the following compound? N=C(N)c1ccc2oc3ccc(C(=N)N)cc3c(=O)c2c1
21

What value of growth inhibition has been reported for the following compound? O=C(NCCN1CCN2Cc3[nH]c4ccccc4c3CC2C1)c1ccc(Cl)cc1 (configuration not stated)
1

What value of growth inhibition has been reported for the following compound? NNC(=O)c1c(SCc2ccccc2)nc2c3ccccc3ccn12
42

What value of growth inhibition has been reported for the following compound? O=C(O)/C(=C/c1c(O)ccc2ccccc12)c1csc(-c2nc(/C(=C\c3c(O)ccc4ccccc34)C(=O)O)cs2)n1
74

What value of growth inhibition has been reported for the following compound? CCN(CC)CCOC(=O)c1ccc(N=Nc2cc(Cl)c(C)cc2O)cc1
55

----------
- test.details: NCI Yeast Anticancer Drug Screen. Data for the mlh1 rad18 strain (AID 175)
- condition.label: S. cerevisiae mlh1 rad18 strain growth inhibition; at 5.0 µM (retest, dose inferred, filed as 0.5)
- Protocol: Growth inhibition of yeast strains with defined genetic alterations is measured as a screen for potential anti-cancer activity. Selected strains with alterations in DNA damage repair or cell cycle control were exposed to compounds and growth inhibition was measured relative to vehicle treated controls. The strain used in this assay is mlh1 rad18
This is part of a sample that, as a whole, favours compounds with a hit. Of some 79,000 tested, about 15% had one in any assay. The source made the active and inactive calls. No stated cut-off is given here; in the data, active means growth inhibition above about 70%; inactive means the rest.
Parameter call: string, one of T (active), F (inactive)

Below are worked cases with known answers.
NS(=O)(=O)c1ccc(NC(=S)/N=C\C(C(=O)c2ccccc2)=C(\O)c2ccccc2)cc1    F
O=C1CCSC(=S)N1c1ccc(N=Nc2ccccc2)cc1    F
Cc1c(CC=C(c2ccccc2)c2ccccc2)cccc1C[N+](C)(C)C    T
CCCCCCCC1SCC(=O)N1c1nncs1 (configuration not stated)    F
CC(C(O)c1ccccc1)[N+](=O)[O-] (configuration not stated)    F
COc1ccc(C2COc3cc(O)c(O)cc3C2)cc1 (configuration not stated)    T

Record request — test call for O=C1C(=O)N(c2cc(Cl)ccc2Cl)C(=O)C(=O)C1c1nc2ccccc2o1
F

Record request — test call for O=[N+]([O-])c1ccc(Cc2nc3ccccc3s2)cc1
F

Record request — test call for CC(=O)O[C@H]1CC[C@H]2[C@@H]3CCc4cc(O)c(I)cc4[C@H]3CC[C@]12C
F

Record request — test call for CCOC(=O)C[n+]1c(C)cc(-c2ccccc2)cc1C
F

Record request — test call for NC(=O)NN=C1CSSC1
F

Record request — test call for CC(=O)c1cc(-c2ccc(C)cc2)nc2c(C)cc(C)cc12
F

Record request — test call for Nc1c(/C=C/c2cc3cc(C4=NCCN4)ccc3o2)[nH]c2cc(C3=NCCN3)ccc12
F

Record request — test call for CC(C)CCCC(C)[C@H]1CCC(C2C[C@@H](O)[C@@H]3CC(O)[C@@H](O)C[C@]3(CO)C2=O)[C@]1(C)CCO (some centres not stated)
F

----------
- test.details: NCI Yeast Anticancer Drug Screen. Data for the cln2 rad14 strain (AID 165);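 note: 0% = growth equal to vehicle treated cultures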
- condition.label: S. cerevisiae cln2 rad14 strain, at 50.0 µM (retest, dose inferred, filed as 5.0), stronger effect = higher value
Compounds without any hit were thinned out: in the full panel of roughly 79,000, 15% have a hit.
reported.metric: growth inhibition (%)
Dear colleague, please return just the value in %, with no unit written.

A selection of reference data follows.
CC(C)CC(NC(=O)COc1c(Cl)cc(Cl)c(Cl)c1Cl)C(=O)O (centres undefined)    19
Clc1ccccc1CN1COc2c(ccc3cccnc23)C1    44
NC(=S)N/N=C/c1ccc(Cl)s1    9
O=S(=O)(Cl)c1ccc(Br)cc1    100
CC(CN(CC(=O)O)CC(=O)O)N(CC(=O)O)CC(=O)O.[Cl][Pd][Cl] (centres undefined)    81
CC/C(=N\NS(=O)(=O)c1ccc(C)cc1)c1cccc(OC)c1    78
COc1cc(N=Nc2cccc(S(N)(=O)=O)c2)c2ccccc2c1N    98
O=C(Nc1c(Cl)cccc1Cl)Oc1cccc2cccnc12    98
N#CC(C#N)=C(c1ccccc1)c1ccccc1    99
CC(=O)Nc1cccc2ccc(C)cc12    5

Proceed to the following item.
What value of growth inhibition has been reported for the following compound? CC1(C(Cl)(Cl)Cl)C=CC(O)(C#CC2(O)C=CC(C)(C(Cl)(Cl)Cl)C=C2)C=C1 (centres undefined)
97
